- measurement.target: T1, BMPRIb receptor-Fc fusion (UniProt O00238 14-126)
- T1 construct: BMP receptor-Fc fusion used at 5 ug/mL; also called ALK-6
- T1 sequence (looked up): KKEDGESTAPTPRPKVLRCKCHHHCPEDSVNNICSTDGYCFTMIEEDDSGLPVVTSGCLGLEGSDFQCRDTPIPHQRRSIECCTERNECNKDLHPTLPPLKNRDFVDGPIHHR
- experiment: ELISA-like plate assay, captured BMP-7 from conditioned media, receptor-Fc detection
BMPRIb binding (relative to wild type = 1.0) reference

Solved entries (count: 3):
1) BMP-7 variant F93E (ligand, In conditioned media; numbering on mature BMP-7) STGGKQRSQNRSKTPKNQEALRMASVAENSSSDQRQACKKHELYVSFRDLGWQDWIIAPEGYAAYYCEGECAFPLNSYMNATNHAIVQTLVHEINPETVPKPCCAPTQLNAISVLYFDDSSNVILKKYRNMVVRACGCH	0.99 relative to wild type
2) BMP-7 variant I86K (ligand, In conditioned media; numbering on mature BMP-7) STGGKQRSQNRSKTPKNQEALRMASVAENSSSDQRQACKKHELYVSFRDLGWQDWIIAPEGYAAYYCEGECAFPLNSYMNATNHAKVQTLVHFINPETVPKPCCAPTQLNAISVLYFDDSSNVILKKYRNMVVRACGCH	0.69 relative to wild type
3) BMP-7 variant Y78T (ligand, In conditioned media; numbering on mature BMP-7) STGGKQRSQNRSKTPKNQEALRMASVAENSSSDQRQACKKHELYVSFRDLGWQDWIIAPEGYAAYYCEGECAFPLNSTMNATNHAIVQTLVHFINPETVPKPCCAPTQLNAISVLYFDDSSNVILKKYRNMVVRACGCH	2.4 relative to wild type

Here is another binder to look at.
Task: Look up and state reported BMPRIb binding (relative to wild type = 1.0) for BMP-7 variant L90H (ligand, In conditioned media; numbering on mature BMP-7) STGGKQRSQNRSKTPKNQEALRMASVAENSSSDQRQACKKHELYVSFRDLGWQDWIIAPEGYAAYYCEGECAFPLNSYMNATNHAIVQTHVHFINPETVPKPCCAPTQLNAISVLYFDDSSNVILKKYRNMVVRACGCH
Output: 0.55 relative to wild type

Origin of values: patent US20060058231A1
